Values compiled from patent US11433143B2.

Assay: Determination of MTD doses in normal mice
Conditions: mouse, in vivo, single IV administration
Assay Endpoint: MTD (mg/kg)
Respond numerically; units are mg/kg and should not be typed.

Field MTD (entry O=C1c2c(O)ccc(O)c2C(=O)c2c(NCCNCCO)ccc(NCCNCCO)c21 [MTX, mitoxantrone] ) reads 3
